target-entity: Artemis (SNM1C/DCLRE1C) (Homo sapiens)
assay-procedure: biochemical
reported-endpoint: pIC50
Recall that pIC50 is obtained by taking minus log10 of the concentration measured in molar.

Report measured pIC50; entry is CC[P](CC)(CC)=[Au][S][C@@H]1O[C@H](COC(C)=O)[C@@H](OC(C)=O)[C@H](OC(C)=O)[C@H]1OC(C)=O [auranofin]
4.34

###

target-entity: Artemis (SNM1C/DCLRE1C) (Homo sapiens, UniProt Q96SD1)
Sequence (Q96SD1 whole entry): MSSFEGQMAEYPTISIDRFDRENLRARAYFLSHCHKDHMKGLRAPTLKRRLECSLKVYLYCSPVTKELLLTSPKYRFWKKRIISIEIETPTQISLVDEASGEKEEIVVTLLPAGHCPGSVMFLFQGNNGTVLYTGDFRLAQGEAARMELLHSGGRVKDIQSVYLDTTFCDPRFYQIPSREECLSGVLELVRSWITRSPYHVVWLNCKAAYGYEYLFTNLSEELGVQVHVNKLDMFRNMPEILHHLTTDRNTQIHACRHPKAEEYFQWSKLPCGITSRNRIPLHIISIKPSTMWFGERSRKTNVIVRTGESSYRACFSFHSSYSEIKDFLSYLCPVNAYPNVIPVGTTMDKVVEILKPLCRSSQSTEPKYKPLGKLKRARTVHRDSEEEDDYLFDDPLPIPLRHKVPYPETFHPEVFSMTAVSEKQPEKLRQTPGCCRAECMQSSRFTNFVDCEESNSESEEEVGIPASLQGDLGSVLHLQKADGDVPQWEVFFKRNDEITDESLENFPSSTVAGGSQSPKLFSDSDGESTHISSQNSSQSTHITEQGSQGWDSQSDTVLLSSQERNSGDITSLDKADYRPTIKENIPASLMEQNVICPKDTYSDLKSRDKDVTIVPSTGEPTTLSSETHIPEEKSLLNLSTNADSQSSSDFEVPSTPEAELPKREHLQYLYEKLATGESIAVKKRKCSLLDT
assay-procedure: biochemical
assay-setup: read-out: IC50
reported-endpoint: IC50

Report measured IC50; entry is `CCN(CC)C(=S)SSC(=S)N(CC)CC`
~10.8 µM

The values you see were collected from paper PMC8450076.
